Cited source for all entries: patent US10406207B2

assayed-system: human CCK-B R (Homo sapiens, UniProt P32239)
Construct: expressed in transfected cells
Sequence (P32239 whole entry): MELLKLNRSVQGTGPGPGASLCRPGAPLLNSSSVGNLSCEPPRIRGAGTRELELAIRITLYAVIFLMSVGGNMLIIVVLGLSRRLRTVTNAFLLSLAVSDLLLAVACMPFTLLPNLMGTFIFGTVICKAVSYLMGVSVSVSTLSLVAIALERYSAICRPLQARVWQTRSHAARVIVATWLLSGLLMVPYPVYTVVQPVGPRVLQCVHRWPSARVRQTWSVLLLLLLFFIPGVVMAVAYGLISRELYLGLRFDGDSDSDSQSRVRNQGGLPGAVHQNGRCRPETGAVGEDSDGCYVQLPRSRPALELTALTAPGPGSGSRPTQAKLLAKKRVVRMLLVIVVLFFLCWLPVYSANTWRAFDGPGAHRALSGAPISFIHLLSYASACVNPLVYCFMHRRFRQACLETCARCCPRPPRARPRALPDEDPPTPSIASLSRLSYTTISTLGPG
assay-protocol: Human CCK-B receptor efficacy assay (AlphaScreen SureFire p-ERK)
Format: cell-based
particulars: Table 1; HEK293 cells expressing human CCK-B R, p-ERK; read-out: hCCK-B R EC50
Let's look at some substances and their measured EC50.
observable: EC50 (nM)

INSERT INTO measurements (substance, assayed_system, observable, measured_result) VALUES
  ('H-HAEGTFTSDVSSYLEGQAAKEFIAWLVKGRSKKQGPWLEEEEEAYGWLDF-NH2 [Compound 40, GLP-1(7-36)-SKK-[Gln1,Leu15]Gastrin17]', 'human CCK-B R (Homo sapiens, UniProt P32239)', 'EC50', 15.6),
  ('H-HAEGTFTSDVSSYLEGQAAKEFIAWLVKGRQGPWLEEEEEAYGWLDF-NH2 [Compound 37, GLP-1(7-36)-[Gln1,Leu15]Gastrin17]', 'human CCK-B R (Homo sapiens, UniProt P32239)', 'EC50', 25.9),
  ('H-HAEGTFTSDVSSYLEGQAAKEFIAWLVKGRKQGPWLEEEEEAYGWLDF-NH2 [Compound 38, GLP-1(7-36)-K-[Gln1,Leu15]Gastrin17]', 'human CCK-B R (Homo sapiens, UniProt P32239)', 'EC50', 77.3),
  ('H-HAEGTFTSDVSSYLEGQAAKEFIAWLVKGRAAAQGPWLEEEEEAYGWLDF-NH2 [Compound 39, GLP-1(7-36)-AAA-[Gln1,Leu15]Gastrin17]', 'human CCK-B R (Homo sapiens, UniProt P32239)', 'EC50', 18.8);
